Molecular target: T1, Human T cell receptor on human primary T cells (human, UniProt P01848 1-140; P01850 1-176)
T1 construct: whole, on cells
T1 TCR alpha (looked up): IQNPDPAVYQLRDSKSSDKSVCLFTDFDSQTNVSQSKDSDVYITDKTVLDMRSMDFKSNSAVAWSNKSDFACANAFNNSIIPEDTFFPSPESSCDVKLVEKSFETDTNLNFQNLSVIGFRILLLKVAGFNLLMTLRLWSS
T1 TCR beta (looked up): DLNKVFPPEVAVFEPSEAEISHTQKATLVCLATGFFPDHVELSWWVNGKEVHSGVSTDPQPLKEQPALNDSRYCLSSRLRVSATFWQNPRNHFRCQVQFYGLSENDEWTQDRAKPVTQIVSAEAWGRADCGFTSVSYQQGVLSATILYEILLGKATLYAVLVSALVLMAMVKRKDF
Assay: flow cytometry, human primary T cells
reported.endpoint: EC50 (nM)

>  <binder>
T017000638 (VHH, not shown: small tags and cut ends) VHH: EVQLVESGGGVVQPGGSLRLSCVASWDVHKINFYTWYRQAPGKEREKVAHISIGDQTDYADSAKGRFTISRDESKNTVYLQMNSLRPEDTALYYCRALSRIWPYDYWGQGTLVTVSS

>  <recorded.value>
66

$$$$
>  <binder>
T017000641 (VHH, not shown: small tags and cut ends) VHH: EVQLVESGGGVVQPGGSLRLSCVASWDVHKINFYTWYRQAPGKEREKVAHISIGDQTDYADSAKGRFTISRDESKNTVYLQMNSLRPEDTALYYCRALSKIWPYDYWGQGTLVTVSS

>  <recorded.value>
270

$$$$
>  <binder>
T017000635 (VHH, not shown: small tags and cut ends) VHH: EVQLVESGGGVVQPGGSLRLSCVASWDVHQINFYGWYRQAPGKEREKVAHISIGDQTDYADSAKGRFTISRDESKNTVYLQMNSLRPEDTALYYCRALSRIWPYDYWGQGTLVTVSS

>  <recorded.value>
70

$$$$

I: T017000690 (VHH, not shown: small tags and cut ends) VHH: EVQLVESGGGVVQPGGSLRLSCVASWEVHKINFYGWYRQAPGKEREKVAHISIGDQTDYADSAKGRFTISRDESKNTVYLQMNSLRPEDTALYYCRALSRIWPYDYWGQGTLVTVSS
II: T017000623 (VHH, not shown: small tags and cut ends) VHH: EVQLVESGGGVVQPGGSLRLSCVASWDVHKINFYGWYRQAPGKEREKVAHISIGDQTDYADSAKGRFTISRDESKNTVYLQMNSLRPEDTALYYCRALSKIWPYDYWGQGTLVTVSS
III: T017000691 (VHH, not shown: small tags and cut ends) VHH: EVQLVESGGGVVQPGGSLRLSCVASWEVHQINFYGWYRQAPGKEREKVAHISIGDQTDYADSAKGRFTISRDESKNTVYLQMNSLRPEDTALYYCRALSRIWPYDYWGQGTLVTVSS
IV: T017000624 (VHH, not shown: small tags and cut ends) VHH: EVQLVESGGGVVQPGGSLRLSCVASGYVHKINFYGWYRQAPGKEREKVAHISIGDQTDYADSAKGRFTISRDESKNTVYLQMNSLRPEDTALYYCRALSRIWPYDYWGQGTLVTVSS
List by increasing EC50. Reply with the item labels sorted in the order that was asked for.
IV, I, III, II
(IV: 46 nM, I: 66 nM, III: 150 nM, II: 280 nM)

The values you see were collected from patent US20240092919A1.
